Cited source: paper PMC10535219

Assay: Biodisposition of JV-DE1 eye drops in New Zealand rabbits (LC-MS/MS of plasma and ocular tissues)
Assay type: in vivo
Details: New Zealand, vitreous humor, topical or ocular, 120 ug; rabbit; eye drop 120 µg/eye; read-out: Cmax in vitreous humor

{"Molecule": "CC(C)Oc1ccc(Cc2ccc(NC3=NCCN3)cc2)cc1 [JV-DE1]", "Cmax [ng/mL]": 2.6}

* * *

Assay: Biodisposition of JV-DE1 and JV-MD2 delivered via NIODP (periorbital skin) in non-human primates
Type: in vivo, cynomolgus monkeys
Conditions: cynomolgus, cynomolgus monkey, eyelid/periorbital skin (upper eyelid), topical; JV-DE1; monkey; NIODP OD; 162.2 μg/eye; 6 h; read-out: Drug in OD Tissues, Eyelid/periorbital skin
Endpoint: concentration at 6 h (ng/g)

{"Smiles Structure": "CC(C)Oc1ccc(Cc2ccc(NC3=NCCN3)cc2)cc1", "Endpoint": "concentration at 6 h", "Unit Spec": "ng/g", "Numeric Readout": 7950}
